System: HCC-2998 colon
ASSAY METHOD TEXT: NCI tumour cell line growth inhibition, 48 h
MEASURED QUANTITY: TGI

Can you share its TGI? I mean this molecule: C[N+](C)(C)c1cc[c]([Sn]([c]2ccc([N+](C)(C)C)cc2)([c]2ccc([N+](C)(C)C)cc2)[c]2ccc([N+](C)(C)C)cc2)cc1 > 100 µM

// repeat for CCOC(=O)c1c(N2CCCC2)[nH]c(=O)c(C(c2ccc(Cl)c([N+](=O)[O-])c2)c2c(O)c(C(=O)OCC)c(N3CCCC3)[nH]c2=O)c1O and report > 100 µM

Cc1cc(S(=O)(=O)Nc2nnc3ccccn23)c(S)cc1Cl ? > 100 µM

And what about the molecule COc1ccc(-c2cc(-c3ccc(Cl)cc3)nc(NCCCCNc3ccnc4cc(Cl)ccc34)n2)cc1 ? 3.71 µM

Try CCOC(=O)OC1C(Br)C2CCC1(C)C2(C)C (centres undefined) next. 25.1 µM

Cool, now CC(=O)NNc1nc(C)c(C(=O)NNC(=O)C(=O)Nc2c([N+](=O)[O-])ccc(C)c2C)s1 > 100 µM

What do you have for CC(C)OC(=O)[C@H]1ON2O[C@H](O[C@@H]3CCCC[C@H]3c3ccccc3)C([Si](C)(C)c3ccccc3)[C@H]3OC(=O)[C@@H]1C32 (some centres undefined) ? > 100 µM

Queued: COc1ccc(-c2cn(-c3ccc(OC)c(OC)c3)c(=O)[nH]2)cc1 > 100 µM

// query: Oc1ccc2ccccc2c1C=NCc1c(O)ccc2ccccc12 > 100 µM

* * *

Test system: MCF7 breast
ASSAY METHOD TEXT: NCI tumour cell line growth inhibition, 48 h
MEASURED QUANTITY: GI50

Give its GI50 value. Item: Clc1cccc(CNc2c3ccccc3nc3ccccc23)c1 1620 nM

Try the compound COc1ccc(-c2cc(-c3ccc(Cl)cc3)nc(NCCCCNc3ccnc4cc(Cl)ccc34)n2)cc1 1820 nM

Proceed to O=C1NC2(CCCCC2)C(=O)N1CCN(CCCl)CCCl > 25000 nM

Same again, this time with O=C1Nc2ccccc2/C1=C\c1nc(-c2ccccc2F)n2ccccc12 2100 nM

Lookup CCN(CC)c1ccc(-c2cc(-c3cc(OC)c(OC)c(OC)c3)nc(N3CCC(O)CC3)c2C#N)cc1 628 nM

Can you check O=C(Nc1cc(Cl)ccc1O)c1ccccc1Nc1ccnc(C(F)(F)F)c1 next? 2750 nM

Then this compound: CC(=O)/C(Br)=C/c1ccc(Br)o1 3670 nM

Let us now turn to CCCCCCCCCCNCCSS(=O)(=O)O 1810 nM

* * *

For each record, write down the corresponding TGI.
Test system: OVCAR-3 ovarian
ASSAY METHOD TEXT: NCI tumour cell line growth inhibition, 48 h
Output spec: scalar in µM, unitless text.

Would you kindly share the measured TGI for CCOc1ccc(C(C[N+](=O)[O-])Sc2ccccc2N)cc1 (stereo not given) ? 12

Thanks! And Nc1nc2c(-c3ccc([N+](=O)[O-])cc3)nnn2c2ccccc12 ? 95.3

* * *

I'd be grateful if you could share measured TGI for these entries.
Test system: OVCAR-4 ovarian
ASSAY METHOD TEXT: NCI tumour cell line growth inhibition, 48 h

Looking for the measured TGI of O=S(=O)(O)c1ccc2c(N=Nc3ccc(S(=O)(=O)O)c4ccccc34)c(O)c(S(=O)(=O)O)cc2c1 , can you help? > 100 µM

Also, CCOC(=O)c1c(C)nc2c(c1N)/C(=C/c1ccccn1)C(=O)N2Cc1ccccc1 please. > 50 µM

// repeat for c1ccc2c(c1)c1c3c(c4c(n32)=NCCN4)CCC1 and report > 100 µM

Follow-up item: CCOC(=O)OC1C(Br)C2CCC1(C)C2(C)C (stereo unspecified) 25.1 µM

What would you report for CCOC(=O)c1[nH]c2cc(OC)c(OC)cc2c1CN(C)C ? > 100 µM

Next compound: C=CCCCN1CCCC(C)C1=S (stereo unspecified) > 100 µM
